- ASSAY: in vitro
- PROTOCOL CONDITIONS: Mesocricetus auratus (hamster)
QUANTITY: CC50

# COMPOUND SMILES, CC50
measured = [
    ("Nc1ccc(-n2nc3cc(Cl)c(Cl)cc3n2)cc1", "> 100 µM"),
]

The reported CC50 of the compound CCCC(=O)N(C(=O)CCC)c1ccc(-n2nc3cc(Cl)c(Cl)cc3n2)cc1 was 62 µM

Briefly, CC50 measured for Cc1ccc(C(=O)Nc2ccc(-n3nc4cc(Cl)c(Cl)cc4n3)cc2)cc1 : > 100 µM

Note to self: CC50 recorded for CCCCNC(=O)Nc1ccc(-n2nc3ccccc3n2)cc1 was > 100 µM

Quick note, CC50 for CCCNC(=O)Nc1ccc(-n2nc3cc(C)c(C)cc3n2)cc1 landed at > 100 µM

Per the records, this compound ( CCC(=O)N(C(=O)CC)c1ccc(-n2nc3cc(Cl)c(Cl)cc3n2)cc1 ) has CC50 equal to 26 µM

Documented CC50 of COc1ccc(C(=O)Nc2ccc(-n3nnc4cc(Cl)c(Cl)cc43)cc2)cc1 : > 100 µM

Given item CCCCNC(=O)Nc1ccc(-n2nc3cc(Cl)c(Cl)cc3n2)cc1 , the value recorded as its CC50 is > 100 µM

CCNC(=O)Nc1ccc(-n2nc3ccccc3n2)cc1 has a reported CC50 of > 100 µM

Lab book: CC50 of Nc1ccc(-n2nnc3cc(Cl)c(Cl)cc32)cc1 noted as > 100 µM
